Consider the following compounds; for each one, report its pIC50.
target: CDK5/p25 (Homo sapiens); test: CDK5 mobility shift assay (enzymatic activity of CDK5/p25); type: biochemical; settings: 0.154 nM CDK5/p25, FL peptide 29, 60 min at room temperature; read-out: CDK5 IC50
Sequence (Q00535 whole entry): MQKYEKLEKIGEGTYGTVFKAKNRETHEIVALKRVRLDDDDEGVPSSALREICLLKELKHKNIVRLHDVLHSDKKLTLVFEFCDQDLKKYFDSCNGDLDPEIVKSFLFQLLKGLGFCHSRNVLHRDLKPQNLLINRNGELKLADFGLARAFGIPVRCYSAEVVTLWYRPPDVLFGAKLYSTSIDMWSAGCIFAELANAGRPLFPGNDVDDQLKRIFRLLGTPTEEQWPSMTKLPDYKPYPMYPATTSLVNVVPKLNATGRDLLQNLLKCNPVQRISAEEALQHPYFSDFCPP
Sequence (Q15078 99-307 partner limits assumed): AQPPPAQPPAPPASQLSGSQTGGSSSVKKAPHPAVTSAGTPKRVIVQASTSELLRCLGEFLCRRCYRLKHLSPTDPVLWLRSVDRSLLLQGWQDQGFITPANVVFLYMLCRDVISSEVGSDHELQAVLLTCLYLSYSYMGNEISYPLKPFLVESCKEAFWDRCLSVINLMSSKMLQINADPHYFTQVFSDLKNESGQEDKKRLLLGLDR
pIC50: −log10 of the molar value.

The compound CN1CCC(C(C)(O)c2ccc3cnc(Nc4ccc(-c5ccc(=O)n(C)c5)cc4F)cc3n2)CC1 (stereo not drawn) [Compound 351] showed pIC50 equal to > 8.00

The compound CN1CCC(S(=O)(=O)c2ccc3cnc(Nc4ccc5c(c4)C(=O)NCC5)cc3n2)CC1 [Compound 278] showed pIC50 equal to > 8.00

The compound CN1CCC(S(=O)(=O)c2ccc3cnc(Nc4ccccc4)cc3n2)CC1 [Compound 385] showed pIC50 equal to > 8.00

The compound CN1CCC(S(=O)(=O)c2ccc3cnc(Nc4cccc(N5CCOCC5)c4)cc3n2)CC1 [Compound 273] showed pIC50 equal to > 8.00

The compound COC(=O)c1ccn(-c2ccc(Nc3cc4nc(S(=O)(=O)C5CCN(C)CC5)ccc4cn3)c(F)c2)n1 [Compound 290] showed pIC50 equal to > 8.00

The compound CN1CCC(C(O)c2ccc3cnc(Nc4ccc(-n5ccc(C(=O)O)n5)cc4F)cc3n2)CC1 (stereo not drawn) [Compound 292] showed pIC50 equal to > 8.00

The compound COC(c1ccc2cnc(Nc3ccc(-n4cccn4)cc3F)cc2n1)C1CCN(C)CC1 (single isomer, unassigned) [Compound 387] showed pIC50 equal to 6.00 to 7.00

The compound CN1CCC([C@@](C)(O)c2ccc3cnc(Nc4ccc(-n5cc(C(=O)O)cn5)cc4F)cc3n2)CC1 [Compound 362] showed pIC50 equal to > 8.00

The compound CN1CCC(S(=O)(=O)c2ccc3cnc(Nc4ccc(N5CCOCC5)cc4)cc3n2)CC1 [Compound 262] showed pIC50 equal to > 8.00

The compound COc1ccc(-c2ccc(Nc3cc4nc(C(C)C5CCN(C)CC5)ccc4cn3)c(F)c2)cc1 (stereo not drawn) [Compound 322] showed pIC50 equal to > 8.00

The compound CN1CCC(C(C)(O)c2ccc3cnc(Nc4cccc(N5CCCC5=O)c4)cc3n2)CC1 (stereo not drawn) [Compound 350] showed pIC50 equal to > 8.00

The compound CN1CCC(C(C)(O)c2ccc3cnc(Nc4ccc(-n5cccn5)cc4F)cc3n2)CC1 (single isomer, unassigned) [Compound 216] showed pIC50 equal to > 8.00

The compound Fc1cc(-n2cccn2)ccc1Nc1cc2nc(C(F)(F)C3CCNCC3)ccc2cn1 [Compound 169] showed pIC50 equal to > 8.00

The compound COC(=O)CN(c1ccc2cnc(Nc3ccc(-n4ccc(CO)n4)cc3F)cc2n1)C1CCNCC1 [Compound 112] showed pIC50 equal to 6.00 to 7.00

The compound O=C(O)CN(c1ccc2cnc(Nc3ccc(-n4ccc(CO)n4)cc3F)cc2n1)[C@H]1CC[C@H](O)CC1 [Compound 110] showed pIC50 equal to 6.00 to 7.00

---

Consider the following molecules; for each one, report its IC50.
target: CDK2/CycA2 (Homo sapiens, UniProt P24941); assay: CDK2 mobility shift assay (enzymatic activity of CDK2/CycA2); assay type: biochemical; details: 1.25 nM CDK2/CycA2, 37 μM ATP, FL Peptide 18, 120 min at room temperature; read-out: CDK2 IC50

The molecule CN(C)C(=O)c1ccn(-c2ccc(Nc3cc4nc(S(=O)(=O)C5CCN(CC6COC6)CC5)ccc4cn3)c(F)c2)n1 showed IC50 equal to 100 to 1000 nM

The molecule N#Cc1cccc(-c2ccc(Nc3cc4nc(C(O)C5CCN(CCO)CC5)ccc4cn3)c(F)c2)c1 (single isomer, unassigned) [Compound 251] showed IC50 equal to > 1000 nM

The molecule Fc1cc(-n2cccn2)ccc1Nc1cc2nc(C(F)(F)C3CCNCC3)ccc2cn1 showed IC50 equal to 10 to 100 nM

The molecule COC(=O)c1cnn(-c2ccc(Nc3cc4nc(S(=O)(=O)C5CCN(C)CC5)ccc4cn3)c(F)c2)c1 showed IC50 equal to > 1000 nM

The molecule O=S(=O)(c1ccc2cnc(Nc3ccc(-n4ccc(CO)n4)cc3F)cc2n1)C1CCN(CC(O)CO)CC1 (stereo not shown) [Compound 249] showed IC50 equal to 100 to 1000 nM

The molecule CN1CCC(S(=O)(=O)c2ccc3cnc(Nc4ccc5c(c4)C(=O)NCC5)cc3n2)CC1 showed IC50 equal to 100 to 1000 nM

The molecule CS(=O)(=O)N(c1ccc2cnc(Nc3ccc(-n4cccn4)cc3F)cc2n1)C1CCNCC1 showed IC50 equal to > 1000 nM
